The measured values listed here are drawn from patent US20260109776A1.

# target-of-assay: T1, mouse CD40 on cells (mouse, UniProt P27512 20-289)
# T1 construct: whole, on cells; also called mouse CD40 on HEK293 cells; CD40 on mouse B cells
# T1 sequence (looked up): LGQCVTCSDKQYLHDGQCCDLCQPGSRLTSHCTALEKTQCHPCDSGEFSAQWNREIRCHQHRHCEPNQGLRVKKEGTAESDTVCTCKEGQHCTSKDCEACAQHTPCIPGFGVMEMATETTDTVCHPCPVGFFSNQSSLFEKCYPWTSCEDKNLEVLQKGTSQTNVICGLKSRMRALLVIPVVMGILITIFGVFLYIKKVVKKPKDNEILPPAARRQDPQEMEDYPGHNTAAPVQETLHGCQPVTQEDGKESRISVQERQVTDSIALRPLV
# test: flow cytometry, HEK293 transfectants vs control cells
endpoint: fold over control (gMFI) (fold)
Reply numerically in fold, unit not repeated.

Worked cases, fold over control (gMFI) given:
# binder, experimental-result
rows = [
    ("37A6 (antibody, IgG4, V domains shown, also called 4865-1) VH: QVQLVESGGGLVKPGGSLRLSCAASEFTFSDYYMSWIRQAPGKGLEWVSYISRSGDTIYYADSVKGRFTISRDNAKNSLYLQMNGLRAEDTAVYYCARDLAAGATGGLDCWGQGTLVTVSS VL: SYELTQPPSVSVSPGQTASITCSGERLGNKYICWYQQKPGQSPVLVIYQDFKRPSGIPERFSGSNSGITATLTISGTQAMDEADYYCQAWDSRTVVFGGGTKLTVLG", 0.9),
    ("35F11 (antibody, IgG4, V domains shown, also called 4868-1) VH: QVQLVESGGGVVQPGRSLRLSCAASGFTLSSYGMHWVRQAPGKGLEWVAVIWYDGSNKYYADSVKGRVTISRDNSKNTLYLQMNSLRAEDTAVYYCTRDGRNYVYFDNWGQGTLVTVSS VL: QSALTQPRSVSGSPGQSVTISCTGTSSDVGGYIFVSWYQQHPGKAPKLMIYDVSKRPSGVPDRFSGSKSVNTASLTISGLQAEDETDYYCCSYAGNYTYVFGTGTKVTVLG", 0.8),
    ("36F3 (antibody, IgG4, V domains shown, also called 4891-1) VH: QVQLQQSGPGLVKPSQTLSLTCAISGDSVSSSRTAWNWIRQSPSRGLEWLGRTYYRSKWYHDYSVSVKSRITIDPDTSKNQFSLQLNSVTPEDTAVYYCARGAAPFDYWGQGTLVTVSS VL: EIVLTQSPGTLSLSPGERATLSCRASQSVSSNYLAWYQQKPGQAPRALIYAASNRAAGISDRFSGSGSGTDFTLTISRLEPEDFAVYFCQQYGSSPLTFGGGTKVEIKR", 0.9),
    ("33H6 (antibody, IgG4, V domains shown, also called 4883-1) VH: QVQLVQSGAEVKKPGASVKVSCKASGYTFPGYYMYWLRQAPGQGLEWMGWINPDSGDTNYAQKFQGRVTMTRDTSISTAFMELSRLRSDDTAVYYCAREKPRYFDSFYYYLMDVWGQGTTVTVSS VL: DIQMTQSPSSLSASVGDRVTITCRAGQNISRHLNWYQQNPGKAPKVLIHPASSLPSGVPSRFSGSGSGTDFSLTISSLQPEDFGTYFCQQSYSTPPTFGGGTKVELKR", 0.9),
]

Recorded fold over control (gMFI) for 4G7 (antibody, IgG4, V domains shown, also called 4869-1) VH: QVQLVQSGAEVKKPGASVKVSCKASGYTFAGYYMHWVRQAPGQGLEWMGWINPDSGGTNFAQQFQGRVTMTRDTSISTAYMEVSRLRSDDTAVFYCAREKITMTGIYFDYWGQGTLVTVSS VL: DIQMTQSPSSLSASVGDILTITCRASQNITTYLNWYQQKPGKAPNLLISAASRLRSGVPSRFSGSGSGTDFTLTISSLQPVDFTTFYCQQTFTTPWTFGQGTKVEIKR , please? 0.9
